# Test system: PC3
# protocol-text: PC3 tumor cell line proliferation assay
# Assay type: cell-based
# assay-conditions: Homo sapiens, PC-3; Table 1; read-out: PC3 IC50
Assignment: determine reported IC50 for the given molecules.

CC(=O)N1CCC(n2nc(-c3ccc4oc(N)nc4c3)c3c(N)ncnc32)CC1 | < 10 µM
CC(C)n1nc(-c2ccc3onc(N)c3c2)c2c(N)ncnc21 | > 10 µM

// each listed molecule needs a value for IC50
1. Nc1nc2cc(-c3nn(C4CCOCC4)c4ncnc(N)c34)ccc2o1
2. CC(=O)Nc1nc2cc(-c3nn(C(C)C)c4ncnc(N)c34)ccc2o1

OUTPUT:
1: < 0.1 µM; 2: < 1 µM

###

# System: PC3
# protocol-text: PC3 tumor cell line proliferation assay
# Format: cell-based
# assay-conditions: Homo sapiens, PC-3; Table 1; read-out: PC3 IC50
I'd appreciate it if you could supply IC50 values for the items below.

CC(C)n1nc(-c2ccc3c(N)noc3c2)c2c(N)ncnc21 | > 10 µM
Nc1nc2cc(-c3nn(C4CCC(N5CCOCC5)CC4)c4ncnc(N)c34)ccc2o1 (stereo not drawn) | < 1 µM
Nc1nc2cc(-c3cn(C4CCOCC4)c4ncnc(N)c34)ccc2o1 | < 0.1 µM
CC(C)n1cc(-c2ccc3oc(N)nc3c2)c2c(N)ncnc21 | < 0.1 µM
CC(C)n1nc(-c2ccc3nc(N)oc3c2)c2c(N)ncnc21 | < 10 µM

# context switch: different molecule, same IC50
INPUT: API: value(readout= IC50, system= PC3, query= `CC(=O)Nc1noc2cc(-c3nn(C(C)C)c4ncnc(N)c34)ccc12` )
OUTPUT: > 10 µM
